Test system: HCT-116 p21^+/+ (wt) cells
Test: Growth inhibition (cell viability assay) of HCT-116 p21+/+ cells
Conditions: Homo sapiens, HCT-116, 48 h, read-out: GI50 (nM) 48 h p21^+/+
Here, each record is paired with measured GI50 data.
measured.metric: GI50 (nM)

>>> recorded_number("CC(C)CCC(=O)[C@@H](C)[C@@]1(O)[C@@H](OC2OCC(O)C(OC3OCC(O)C(O)C3O)C2O)C[C@H]2[C@@H]3CC=C4C[C@@H](O)CC[C@]4(C)C3CC[C@@]21C (stereo partly shown)")
1400
>>> recorded_number("C=CCOC(=O)NCc1ccc(CNC(=O)OC2C(O)COC(OC3C(O)COC(O[C@H]4C[C@H]5[C@@H]6CC=C7C[C@@H](O)CC[C@]7(C)C6CC[C@]5(C)[C@@]4(O)[C@H](C)C(=O)CCC(C)C)C3OC(C)=O)C2OC(=O)c2ccc(OC)cc2)cc1 (stereo partly shown)")
0.6
>>> recorded_number("C=CCOC(=O)NCc1ccc(CNC(=O)O[C@H]2CC[C@@]3(C)C(=CC[C@@H]4C3CC[C@@]3(C)[C@H]4C[C@H](OC4OCC(O)C(OC5OCC(O)C(O)C5OC(=O)c5ccc(OC)cc5)C4OC(C)=O)[C@]3(O)[C@H](C)C(=O)CCC(C)C)C2)cc1 (stereo partly shown)")
91
>>> recorded_number("C=CCOC(=O)NCc1ccc(CNC(=O)OC2COC(OC3C(O)COC(O[C@H]4C[C@H]5[C@@H]6CC=C7C[C@@H](O)CC[C@]7(C)C6CC[C@]5(C)[C@@]4(O)[C@H](C)C(=O)CCC(C)C)C3OC(C)=O)C(OC(=O)c3ccc(OC)cc3)C2O)cc1 (stereo partly shown)")
17
>>> recorded_number("COc1ccc(C(=O)OC2C(OC3C(O)COC(O[C@H]4C[C@H]5[C@@H]6CC=C7C[C@@H](O[Si](C)(C)C(C)(C)C)CC[C@]7(C)C6CC[C@]5(C)[C@@]4(O)[C@H](C)C(=O)CCC(C)C)C3OC(C)=O)OCC(O)C2O)cc1 (stereo partly shown)")
2300
>>> recorded_number("C=CCOC(=O)NCCCCCCNC(=O)O[C@H]1CC[C@@]2(C)C(=CC[C@@H]3C2CC[C@@]2(C)[C@H]3C[C@H](OC3OCC(O)C(OC4OCC(O)C(O)C4OC(=O)c4ccc(OC)cc4)C3OC(C)=O)[C@]2(O)[C@H](C)C(=O)CCC(C)C)C1 (stereo partly shown)")
172
>>> recorded_number("C=CCOC(=O)NCc1ccc(CNC(=O)O[C@H]2CC[C@@]3(C)C(=CC[C@@H]4C3CC[C@@]3(C)[C@H]4C[C@H](OC4OCC(O)C(OC5OCC(O)C(O)C5O)C4O)[C@]3(O)[C@H](C)C(=O)CCC(C)C)C2)cc1 (stereo partly shown)")
6500
>>> recorded_number("COc1ccc(C(=O)OC2C(OC3C(O)COC(O[C@H]4C[C@H]5[C@@H]6CC=C7C[C@@H](OC(=O)NCCCCCCNC(=O)OCC8c9ccccc9-c9ccccc98)CC[C@]7(C)C6CC[C@]5(C)[C@@]4(O)[C@H](C)C(=O)CCC(C)C)C3OC(C)=O)OCC(O)C2O)cc1 (stereo partly shown)")
85
>>> recorded_number("CC(=O)OC1C(O[C@H]2C[C@H]3[C@@H]4CC=C5C[C@@H](O)CC[C@]5(C)C4CC[C@]3(C)[C@@]2(O)[C@H](C)C(=O)CCC(C)C)OCC(O)C1OC1OCC(O)C(O)C1O (stereo partly shown)")
120
